test system: TO-N3 (biotin conjugate); assay: pull-down binding Z-score (relative to library population); higher = stronger binding; conditions: RNA library: Library-2
Record form. Attribute: pull-down binding Z-score. Fill in for each entry.
Answers are plain numbers.

These recorded examples may help you get a feel for the data.
UGCUGAUGUCAUCAGUCAUAACUUCUGCG [hsa-mir-6854] = -0.0155
GGAGACCCUAUACAUACCUGUUUCC [hsa-mir-5581] = -0.37
CAACCUAAAUAGAGGUAUG = -0.716
UUGGGGAGGAGCUAAGAAGCCCCUACAGGGCCCAG [hsa-mir-4257] = 0.56

Fill in pull-down binding Z-score for each of the 2 sequences listed.
1. GGGAGCUAUAAACAGCAGUCUCCC [IAV_invivo_HA_4_Motif_12+IAV_invivo_HA_4_Motif_12]
2. CAUCAACCAUAUGUAGUUGAUG

1. 0.537
2. -0.872

====

test system: TO-3-N3-2 (biotin conjugate); assay: pull-down binding Z-score (relative to library population); higher = stronger binding; settings: RNA library: Library-2
Measurement type: pull-down binding Z-score
One number for each entry.

Fill in pull-down binding Z-score for each of the 4 sequences listed.
1. UAGACAAUUCUAGUCUUACUAUUAAGAAACCUAAUGAAUUAUCUA [SHAPE_invivo_SARS-CoV-2_Motif_135]
2. GAGGUAAGUACGAUACUUACCUG [U1snRNP5ss-7]
3. CACAGUUCUGG [hsa-mir-761]
4. AGUAUGGCUACAUACU [DMSMaPseq_invitro_SARS-CoV-2_Motif_53]

1: -0.287; 2: -0.544; 3: -0.473; 4: -0.367

Fill in pull-down binding Z-score for each of the 5 sequences listed.
1. GUCUCUGAAGAAGUAGUGGAAAAUCCUACCAUACAGAAAGAC
2. CUAUUCAGAAAUGUGGCCUGUGAUUAG [hsa-mir-1295a]
3. CUGCAGGAAAGGGAAGACCAAGGCUUGCUGUCUGUCCAGUCUGCCACCCUACCCUGU [hsa-mir-1231]
4. UGCAGUAUCCGCUGUUGCUGCU [hsa-mir-6132]
5. GUCUCUAUAGAAAUAGAGAU

1. 0.0814
2. 0.231
3. 0.108
4. -0.341
5. -0.397

Need pull-down binding Z-score of UUAUUUGAGAUGAGUUACAUCUUGGAGG [hsa-mir-1204] , thanks.
-0.295

====

system: TO-3-N3 (biotin conjugate); experiment: pull-down binding Z-score (relative to library population); higher = stronger binding; settings: RNA library: Library-2
Record form. Attribute: pull-down binding Z-score. Fill in for each entry.
One number for each entry.

These recorded examples may help you get a feel for the data.
GGCAUCAGAGGACAGCCGCCUGGUGCC [hsa-mir-4641] = 0.287
UUAAAAUAUGACUUCACGGAAGAGAGGUUAAAACUCUUUGACCGUUAUUUUAA [DMSMaPseq_invitro_SARS-CoV-2_Motif_258] = 0.0656
UAAUUCUUGGCUUAUGUGGUUAAUAAUUA [DMSMaPseq_invitro_SARS-CoV-2_Motif_139] = -0.0604
AAACCCGGUAAUUUUAACAAAGACUUCUAUGACUUUGCUGUGUCUAAGGGUUU [SHAPE_invivo_SARS-CoV-2_Motif_278] = -0.52
AUCCGAUUUACAGGAU = -0.684
GUUCGCUUAAUUUAUGACGAAUC [hsa-mir-487a] = -0.221

Fill in pull-down binding Z-score for each of the 3 sequences listed.
1. UGCACCACUCUCCCUGUGAUGAGGUGAA [hsa-mir-4786]
2. UAUGCAAAGCUCUGACAGUGUUUCACUUGCUA [hsa-mir-7848]
3. GGUGUCAUGCCCCAAGAUAACC [hsa-mir-634]

[-0.535, -0.489, -0.514]

Data provenance: the supplement of paper PMC11865577
